# Tested on: RERF-LC-KJ
# Experiment Description: relative viability (nuclei count vs DMSO), 5 days (fraction); higher = more cells survive
# Run Conditions: first compound 0.01 µM
Value Type: relative viability
Answer as a number with no unit attached.

input: Quick one: relative viability of CC(C)Oc1cc(Nc2nc(N[C@@H](C)c3ccc(F)cn3)ncc2Cl)n[nH]1 [AZ23] + Nc1ncn([C@H]2C[C@H](O)[C@@H](CO)O2)c(=O)n1 [Decitabine] (partner 2 µM) ?
output: 0.783

input: Quick one: relative viability of CC(C)Oc1cc(Nc2nc(N[C@@H](C)c3ccc(F)cn3)ncc2Cl)n[nH]1 [AZ23] + CC1(C)CCC(c2ccc(Cl)cc2)=C(CN2CCN(c3ccc(C(=O)NS(=O)(=O)c4ccc(N[C@H](CCN5CCOCC5)CSc5ccccc5)c(S(=O)(=O)C(F)(F)F)c4)cc3)CC2)C1 [Navitoclax] (partner 0.5 µM) ?
output: 0.719

input: Quick one: relative viability of CC(C)Oc1cc(Nc2nc(N[C@@H](C)c3ccc(F)cn3)ncc2Cl)n[nH]1 [AZ23] + CCNC(=O)c1noc(-c2cc(C(C)C)c(O)cc2O)c1-c1ccc(CN2CCOCC2)cc1 [Luminespib] (partner 0.01 µM) ?
output: 1.34

input: Quick one: relative viability of CC(C)Oc1cc(Nc2nc(N[C@@H](C)c3ccc(F)cn3)ncc2Cl)n[nH]1 [AZ23] + CC(=O)Nc1cccc(-n2c(=O)n(C3CC3)c(=O)c3c(Nc4ccc(I)cc4F)n(C)c(=O)c(C)c32)c1 [Trametinib] (partner 0.02 µM) ?
output: 0.837

input: Quick one: relative viability of CC(C)Oc1cc(Nc2nc(N[C@@H](C)c3ccc(F)cn3)ncc2Cl)n[nH]1 [AZ23] + Cc1cc(Nc2cc(N3CCN(C)CC3)nc(Sc3ccc(NC(=O)C4CC4)cc3)n2)n[nH]1 [Tozasertib] (partner 0.1 µM) ?
output: 0.532

input: Quick one: relative viability of CC(C)Oc1cc(Nc2nc(N[C@@H](C)c3ccc(F)cn3)ncc2Cl)n[nH]1 [AZ23] + Cc1nc(NC(=O)N2CCC[C@H]2C(N)=O)sc1-c1ccnc(C(C)(C)C(F)(F)F)c1 [Alpelisib] (partner 2 µM) ?
output: 0.714

---

# Tested on: NCI-H2228
# Experiment Description: relative viability (nuclei count vs DMSO), 5 days (fraction); higher = more cells survive
# Run Conditions: first compound 0.04 µM
Value Type: relative viability
Answer as a number with no unit attached.

input: Quick one: relative viability of COc1cc(N2CCC(C(N)=O)CC2)ccc1Nc1nc(N)c(Cl)c(Nc2ccccc2S(=O)(=O)C(C)C)n1 [HG-5-88-01] + C[C@@H](Oc1cc(-c2cnn(C3CCNCC3)c2)cnc1N)c1c(Cl)ccc(F)c1Cl [Crizotinib] (partner 1 µM) ?
output: 0.677

input: Quick one: relative viability of C[C@@H]1CN(CC(=O)Nc2ccc3c(c2)Cc2cccc(-c4cc(=O)cc(N5CCOCC5)o4)c2S3)C[C@H](C)O1 + N=C(N)NC(=N)NCCc1ccccc1 [Phenformin] (partner 250 µM) ?
output: 0.356

---

I'd be grateful if you could share measured relative viability for these entries.
# Test system: NCI-H441
# Experiment Description: relative viability (nuclei count vs DMSO), 5 days (fraction); higher = more cells survive
# Run Conditions: first compound 8 µM
Answer as a number with no unit attached.

input: Quick one: relative viability of CCCCCCCCCCCC1=C(O)C(=O)C=C(O)C1=O [Embelin] + CC(C)C[C@H](NC(=O)[C@H](Cc1ccccc1)NC(=O)c1cnccn1)B(O)O [Bortezomib] (partner 0.002 µM) ?
output: 0.475

input: Quick one: relative viability of CCCCCCCCCCCC1=C(O)C(=O)C=C(O)C1=O [Embelin] + N=C(N)NC(=N)NCCc1ccccc1 [Phenformin] (partner 250 µM) ?
output: 0.982

input: Quick one: relative viability of CCCCCCCCCCCC1=C(O)C(=O)C=C(O)C1=O [Embelin] + Cc1nc(Nc2ncc(C(=O)Nc3c(C)cccc3Cl)s2)cc(N2CCN(CCO)CC2)n1 [Dasatinib] (partner 0.075 µM) ?
output: 0.838

---

# Tested on: NCI-H2087
# Experiment Description: relative viability (nuclei count vs DMSO), 5 days (fraction); higher = more cells survive
# Run Conditions: first compound 0.03162 µM
Value Type: relative viability
Answer as a number with no unit attached.

input: Quick one: relative viability of CC(C)Oc1cc(Nc2nc(N[C@@H](C)c3ccc(F)cn3)ncc2Cl)n[nH]1 [AZ23] + CC1(C)CCC(c2ccc(Cl)cc2)=C(CN2CCN(c3ccc(C(=O)NS(=O)(=O)c4ccc(N[C@H](CCN5CCOCC5)CSc5ccccc5)c(S(=O)(=O)C(F)(F)F)c4)cc3)CC2)C1 [Navitoclax] (partner 0.5 µM) ?
output: 1.12

input: Quick one: relative viability of CC(C)Oc1cc(Nc2nc(N[C@@H](C)c3ccc(F)cn3)ncc2Cl)n[nH]1 [AZ23] + Cc1cc(Nc2cc(N3CCN(C)CC3)nc(Sc3ccc(NC(=O)C4CC4)cc3)n2)n[nH]1 [Tozasertib] (partner 0.1 µM) ?
output: 0.245

input: Quick one: relative viability of CC(C)Oc1cc(Nc2nc(N[C@@H](C)c3ccc(F)cn3)ncc2Cl)n[nH]1 [AZ23] + O=C(c1cc(Cc2n[nH]c(=O)c3ccccc23)ccc1F)N1CCN(C(=O)C2CC2)CC1 [Olaparib] (partner 8 µM) ?
output: 0.73

input: Quick one: relative viability of CC(C)Oc1cc(Nc2nc(N[C@@H](C)c3ccc(F)cn3)ncc2Cl)n[nH]1 [AZ23] + CS(=O)(=O)CCNCc1ccc(-c2ccc3ncnc(Nc4ccc(OCc5cccc(F)c5)c(Cl)c4)c3c2)o1 [Lapatinib] (partner 2 µM) ?
output: 1.17

input: Quick one: relative viability of CC(C)Oc1cc(Nc2nc(N[C@@H](C)c3ccc(F)cn3)ncc2Cl)n[nH]1 [AZ23] + CCNC(=O)c1noc(-c2cc(C(C)C)c(O)cc2O)c1-c1ccc(CN2CCOCC2)cc1 [Luminespib] (partner 0.01 µM) ?
output: 0.171

---

# Tested on: NCI-H1651
# Experiment Description: relative viability (nuclei count vs DMSO), 5 days (fraction); higher = more cells survive
# Run Conditions: first compound 0.4 µM
Value Type: relative viability
Answer as a number with no unit attached.

input: Quick one: relative viability of Clc1ccc(Nc2nnc(Cc3ccncc3)c3ccccc23)cc1 [Vatalanib] + CCNC(=O)c1noc(-c2cc(C(C)C)c(O)cc2O)c1-c1ccc(CN2CCOCC2)cc1 [Luminespib] (partner 0.01 µM) ?
output: 0.878

input: Quick one: relative viability of COc1cc(N2CCC(C(N)=O)CC2)ccc1Nc1nc(N)c(Cl)c(Nc2ccccc2S(=O)(=O)C(C)C)n1 [HG-5-88-01] + COc1cccc2cc(-c3nc([C@H]4CC[C@H](C(=O)O)CC4)n4ncnc(N)c34)[nH]c12 [OSI-027] (partner 0.5 µM) ?
output: 0.605

input: Quick one: relative viability of Clc1ccc(Nc2nnc(Cc3ccncc3)c3ccccc23)cc1 [Vatalanib] + Cc1nc(NC(=O)N2CCC[C@H]2C(N)=O)sc1-c1ccnc(C(C)(C)C(F)(F)F)c1 [Alpelisib] (partner 2 µM) ?
output: 0.968

input: Quick one: relative viability of COc1cc(N2CCC(C(N)=O)CC2)ccc1Nc1nc(N)c(Cl)c(Nc2ccccc2S(=O)(=O)C(C)C)n1 [HG-5-88-01] + Cc1cc(Nc2cc(N3CCN(C)CC3)nc(Sc3ccc(NC(=O)C4CC4)cc3)n2)n[nH]1 [Tozasertib] (partner 0.1 µM) ?
output: 0.7

input: Quick one: relative viability of C[C@@H]1CN(CC(=O)Nc2ccc3c(c2)Cc2cccc(-c4cc(=O)cc(N5CCOCC5)o4)c2S3)C[C@H](C)O1 + Cc1nc(Nc2ncc(C(=O)Nc3c(C)cccc3Cl)s2)cc(N2CCN(CCO)CC2)n1 [Dasatinib] (partner 0.075 µM) ?
output: 0.478

input: Quick one: relative viability of C[C@@H]1CN(CC(=O)Nc2ccc3c(c2)Cc2cccc(-c4cc(=O)cc(N5CCOCC5)o4)c2S3)C[C@H](C)O1 + C[C@@H](Oc1cc(-c2cnn(C3CCNCC3)c2)cnc1N)c1c(Cl)ccc(F)c1Cl [Crizotinib] (partner 1 µM) ?
output: 0.903

input: Quick one: relative viability of Clc1ccc(Nc2nnc(Cc3ccncc3)c3ccccc23)cc1 [Vatalanib] + CC(=O)Nc1cccc(-n2c(=O)n(C3CC3)c(=O)c3c(Nc4ccc(I)cc4F)n(C)c(=O)c(C)c32)c1 [Trametinib] (partner 0.02 µM) ?
output: 0.779

input: Quick one: relative viability of COc1cc(N2CCC(C(N)=O)CC2)ccc1Nc1nc(N)c(Cl)c(Nc2ccccc2S(=O)(=O)C(C)C)n1 [HG-5-88-01] + CS(=O)(=O)N1CCN(Cc2cc3nc(-c4cccc5[nH]ncc45)nc(N4CCOCC4)c3s2)CC1 [Pictilisib] (partner 1 µM) ?
output: 0.559

Values from the supplement of paper PMC10307832
